Data credit: patent US20240270821A1

Target: T1, human GIP receptor (human) (UniProt P48546)
T1 sequence (looked up): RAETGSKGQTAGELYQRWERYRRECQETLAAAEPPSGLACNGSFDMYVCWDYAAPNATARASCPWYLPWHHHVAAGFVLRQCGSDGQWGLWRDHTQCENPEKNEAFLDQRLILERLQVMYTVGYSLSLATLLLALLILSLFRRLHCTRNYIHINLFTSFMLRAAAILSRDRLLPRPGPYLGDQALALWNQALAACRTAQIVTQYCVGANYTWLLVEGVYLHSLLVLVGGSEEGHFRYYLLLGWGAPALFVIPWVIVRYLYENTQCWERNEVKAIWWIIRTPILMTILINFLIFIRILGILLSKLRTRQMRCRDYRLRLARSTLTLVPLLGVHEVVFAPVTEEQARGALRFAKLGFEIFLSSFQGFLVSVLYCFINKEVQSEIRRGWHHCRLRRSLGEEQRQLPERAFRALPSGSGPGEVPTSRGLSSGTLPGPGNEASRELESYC
Test: cell-based or functional assay
Non-standard residues stand in square brackets, D forms with d. No end group written: not given here. αMeL = CC(C)C[C@](C)(N)C(=O)O; Aib = CC(C)(N)C(=O)O
OBSERVABLE: Relative cAMP EC50 (nM)
Numbers only, in nM.

Please review the entries below; each comes with its answer.
YXQGTFTSDFSRXLDKKAQXAFIEYLIEXGESSGAPPPSGE (non-natural residues; lipidated Lys; C-terminal amide; synthetic construct; SITE 2: note = 2-Aminoisobutyric Acid; SITE 13: note = alpha-methyl-leucine; SITE 17: note = Lysine is chemically modified through conjugation of the epsilon-amino group of the Lysine side chain with (2-[2-(2-Amino-ethoxy)-ethoxy]-acetyl)-(gamma-Glu)-CO-(CH2) 16-CO2H; SITE 20: n) [Example 231]	0.119
YXQGTFTSDFSKXLDKKAQXAFIEYLLEXGPSSGAPPPGEG (synthetic construct; SITE 2: note = 2-Aminoisobutyric Acid; SITE 13: note = alpha-methyl-leucine; SITE 17: note = Lysine is chemically modified through conjugation of the epsilon-amino group of the Lysine side chain with (2-[2-(2-Amino-ethoxy)-ethoxy]-acetyl)2-(gamma-Glu)-CO-(CH2 )18-CO2H; SITE 20:) [Example 55]	0.0856
YXQGTXTSDXSIXLDKKAQXXFIEYLSEGGPSSGEPPPEGSEE (synthetic construct; SITE 2: note = 2-Aminoisobutyric Acid; SITE 6: note = alpha-methyl-2-fluoro-L-phenylalanine; SITE 10: note = 3-(4-Pyridyl)-L-alanine; SITE 13: note = alpha-methyl-leucine; SITE 17: note = Lysine is chemically modified through conjugation of the epsilon-amino group of the Lysine) [Example 651 (SEQ ID NO: 657)]	0.112
YXQGTFTSDFSXXLDKKAQXAFIEYLIEXSPSSGAPPPSGS (synthetic construct; SITE 2: note = 2-Aminoisobutyric Acid; SITE 12: note = L-ornithine; SITE 13: note = alpha-methyl-leucine; SITE 17: note = Lysine is chemically modified through conjugation of the epsilon-amino group of the Lysine side chain with (2-[2-(2-Amino-ethoxy)-ethoxy]-acetyl)-(gamma-Glu)) [Example 804]	0.0751
YXQGTFTSDXSQXLDKKAQXAFIEYLLEAGPSSXAPPPSGT (C-terminal amide; acylated; synthetic construct; SITE 2: note = 2-Aminoisobutyric Acid; SITE 10: note = 3-(4-Pyridyl)-L-alanine; SITE 13: note = alpha-methyl-leucine; SITE 17: note = Lysine is chemically modified through conjugation of the epsilon-amino group of the Lysine side chain with (2-[2-(2-Amino-ethoxy)-ethoxy]-acetyl)) [Example 824]	0.123

Batch request: Relative cAMP EC50 per item, same order as input.
1. Y[Aib]QGTFTSDYSI[αMeL]LDKQAAKQFVEWLIA[Aib]GPSSGEPPPGSG-NH2 (not fully specified (residue 20)) [Example 335]
2. YXQGTXTSDXXIXLDXKAQXEFIEXLIEGGPSSGEPPPSGE (not fully specified; non-natural residues; acylated Lys; C-terminal amide; synthetic construct; SITE 2: note = 2-Aminoisobutyric Acid; SITE 6: note = alpha-methyl-2-fluoro-L-phenylalanine; SITE 10: note = 3-(4-Pyridyl)-L-alanine; SITE 11: note = alpha-methyl-L-serine; SITE 13: note = alpha-methyl-leucine; SITE 16: note = L-ornithine; SITE 17: note = Lysine is chemically mo) [Example 1151]
3. YXQGTXTSDXSIXLDKKAQXAFIEYLEEGGPSSGAPPPSGTGE (non-natural residues; (γGlu)2-C18 diacid acyl; C-terminal amide; synthetic construct; SITE 2: note = 2-Aminoisobutyric Acid; SITE 6: note = alpha-methyl-2-fluoro-L-phenylalanine; SITE 10: note = 3-(4-Pyridyl)-L-alanine; SITE 13: note = alpha-methyl-leucine; SITE 17: note = Lysine is chemically modified through conjugation of the epsilon-amino group of the Lysine) [Example 622]
4. YXQGTFTSDFSKXLDKKAQXQFIEYLLAGGPSSGEPPPSEG (Lys acylated; Aib, αMeL; C-terminal amide; synthetic construct; SITE 2: note = 2-Aminoisobutyric Acid; SITE 13: note = alpha-methyl-leucine; SITE 17: note = Lysine is chemically modified through conjugation of the epsilon-amino group of the Lysine side chain with (2-[2-(2-Amino-ethoxy)-ethoxy]-acetyl)-(gamma-Glu)-CO-(CH2) 16-CO2H; SITE 20: n) [Example 26]

Reply:
0.292
0.00339
0.0148
0.2

// batch mode: one Relative cAMP EC50 value per listed entry
1. YXQGTFTSDXSQXLDKKAQXAFIEYLIAGGPSSGAPPPSGSEE (synthetic construct; SITE 2: note = 2-Aminoisobutyric Acid; SITE 10: note = 3-(4-Pyridyl)-L-alanine; SITE 13: note = alpha-methyl-leucine; SITE 17: note = Lysine is chemically modified through conjugation of the epsilon-amino group of the Lysine side chain with (gamma-Glu)2-CO-(CH2)16-CO2H; SITE 20:) [Example 960]
2. YXQGTFTSDFSXXLDKKAQXAFIEWLLAGGPSSGEPPPSGE (synthetic construct; SITE 2: note = 2-Aminoisobutyric Acid; SITE 12: note = L-ornithine; SITE 13: note = alpha-methyl-leucine; SITE 17: note = Lysine is chemically modified through conjugation of the epsilon-amino group of the Lysine side chain with (2-[2-(2-Amino-ethoxy)-ethoxy]-acetyl)-(gamma-Glu)) [Example 103]
3. YXQGTFTSDXSRXLDKKAQXAFIEYLIEXGESSGAPPPSGE (non-natural residues, AEEA-γGlu-C18 diacid acyl on K, C-terminal amide; synthetic construct; SITE 2: note = 2-Aminoisobutyric Acid; SITE 10: note = 3-(4-Pyridyl)-L-alanine; SITE 13: note = alpha-methyl-leucine; SITE 17: note = Lysine is chemically modified through conjugation of the epsilon-amino group of the Lysine side chain with (2-[2-(2-Amino-ethoxy)-ethoxy]-acetyl)) [Example 225]

Reply:
1: 0.124; 2: 0.2; 3: 0.213
